The reported numbers originate from paper PMC11009648.

# experiment.summary: In vivo pharmacokinetics in rats
# condition.notes: plasma, iv; Wistar Rat, I.V. 1mg/kg; read-out: Vdss

>  <compound>
Nc1nnc(-c2ccccc2O)cc1-c1ccc(N2CCC(N3CCC(c4ccc(OC5CCC(=O)NC5=O)cc4)CC3)CC2)cc1 (stereo not shown)

>  <Vd>
13.3 L/kg

$$$$

---

# experiment.summary: In vivo pharmacokinetics in mice
# condition.notes: mouse, plasma, iv; CD1 Mice, I.V. 1mg/kg; read-out: Cmax/C0

>  <compound>
Nc1nnc(-c2ccccc2O)cc1-c1ccc(N2CCC(N3CCC(c4ccc(OC5CCC(=O)NC5=O)cc4)CC3)CC2)cc1 (stereo not shown)

>  <Cmax, ng/mL>
443

$$$$

---

# experiment.summary: In vivo pharmacokinetics in mice
# condition.notes: CD1, mouse, plasma, oral; mice; i.v. 1 mg/kg, p.o. 30 mg/kg; read-out: Oral bioavailability (%F)

>  <molecule>
Nc1nnc(-c2ccccc2O)cc1-c1ccc(N2CCC(N3CCC(c4ccc(OC5CCC(=O)NC5=O)cc4)CC3)CC2)cc1 (stereo not shown)

>  <bioavailability [%]>
33.4

$$$$

---

# experiment.summary: In vivo pharmacokinetics in rats
# condition.notes: plasma, po; Wistar Rat, P.O. 30mg/kg; read-out: Cmax/C0

>  <compound>
Nc1nnc(-c2ccccc2O)cc1-c1ccc(N2CCC(N3CCC(c4ccc(OC5CCC(=O)NC5=O)cc4)CC3)CC2)cc1 (stereo not shown)

>  <Cmax / ng/mL>
184

$$$$

---

# experiment.summary: In vivo pharmacokinetics in rats
# condition.notes: plasma, po; Wistar Rat, P.O. 30mg/kg
# Protocol: All experimental procedures relating to animal care, handling, and treatment were approved by the Institutional Animal Ethics Committee of Aurigene Oncology Ltd. based on the Committee for Control and Supervision of Experiments on Animals guidelines. […] Concentrations of AU-24118 were determined in plasma samples using a nonvalidated (fit for purpose) LC–MS/MS method in positive Multiple Reaction Monitoring mode with transition pair of m/z: 633.11→344.00. […]

>  <molecule>
Nc1nnc(-c2ccccc2O)cc1-c1ccc(N2CCC(N3CCC(c4ccc(OC5CCC(=O)NC5=O)cc4)CC3)CC2)cc1 (stereo not shown)

>  <AUC(0-t), ng·h/mL>
3280

$$$$

---

# experiment.summary: In vivo pharmacokinetics in rats
# condition.notes: plasma, iv; Wistar Rat, I.V. 1mg/kg; read-out: CI (Clearance)

>  <molecule>
Nc1nnc(-c2ccccc2O)cc1-c1ccc(N2CCC(N3CCC(c4ccc(OC5CCC(=O)NC5=O)cc4)CC3)CC2)cc1 (stereo not shown)

>  <unit.name>
mL/min/kg

>  <clearance>
22.1

$$$$

---

# experiment.summary: In vivo pharmacokinetics in rats
# condition.notes: plasma, iv; Wistar Rat, I.V. 1mg/kg

>  <molecule>
Nc1nnc(-c2ccccc2O)cc1-c1ccc(N2CCC(N3CCC(c4ccc(OC5CCC(=O)NC5=O)cc4)CC3)CC2)cc1 (stereo not shown)

>  <AUC(0-inf) (ng·h/mL)>
756

$$$$

---

# experiment.summary: In vivo pharmacokinetics in mice
# condition.notes: mouse, plasma; mice, oral, 30mg/kg, dose escalation (Fig. 1G)
reported.property: Tmax (h)

>  <compound>
Nc1nnc(-c2ccccc2O)cc1-c1ccc(N2CCC(N3CCC(c4ccc(OC5CCC(=O)NC5=O)cc4)CC3)CC2)cc1 (stereo not shown)

>  <reported.property>
Tmax

>  <unit.name>
h

>  <measured.result>
3

$$$$

---

# experiment.summary: In vivo pharmacokinetics in mice
# condition.notes: mouse, plasma, iv; CD1 Mice, I.V. 1mg/kg; read-out: Vdss

>  <compound>
Nc1nnc(-c2ccccc2O)cc1-c1ccc(N2CCC(N3CCC(c4ccc(OC5CCC(=O)NC5=O)cc4)CC3)CC2)cc1 (stereo not shown)

>  <Vd [L/kg]>
3.3

$$$$
